- System: MDA-MB-231 breast
- Assay: NCI tumour cell line growth inhibition, 48 h; in the data active = GI50 below about 0.43 µM; inactive = the rest
Outcome codes: active, inactive

- Compound: "COc1ccc(C=Nc2c(C(=O)Nc3cccc(Cl)c3C)sc3nc(C)c(C(=O)/C=C/c4ccc(OC)cc4)cc23)cc1"
  Group: "active"
- Compound: "NC(=NCc1ccccc1)C(N=Nc1ccccc1)C(=O)NCc1ccccc1 (stereo not given)"
  Group: "inactive"
- Compound: "CN(CCCCCl)P(=O)(OCCS(=O)(=O)CC(NC(=O)CCC(N)C(=O)O)C(=O)NC(C(=O)O)c1ccccc1)OCC1OC(n2ccc(N)nc2=O)C(O)C1O (stereo not given)"
  Group: "inactive"
- Compound: "COC(=O)C1=C(O)[C@H](C(=O)OC)C2(O)C(C(=O)OC)[C@H](c3ccc(OC(=O)C(C)c4ccccc4)cc3)C[C@@H]1[C@@H]2C(=O)OC (stereo not given in full)"
  Group: "inactive"
- Compound: "Oc1ccc(Nc2ccc3ccccc3c2)cc1"
  Group: "inactive"
